- testedOn: human Bisphosphoglycerate mutase (hBPGM) (Homo sapiens)
- Sequence (P07738 whole entry): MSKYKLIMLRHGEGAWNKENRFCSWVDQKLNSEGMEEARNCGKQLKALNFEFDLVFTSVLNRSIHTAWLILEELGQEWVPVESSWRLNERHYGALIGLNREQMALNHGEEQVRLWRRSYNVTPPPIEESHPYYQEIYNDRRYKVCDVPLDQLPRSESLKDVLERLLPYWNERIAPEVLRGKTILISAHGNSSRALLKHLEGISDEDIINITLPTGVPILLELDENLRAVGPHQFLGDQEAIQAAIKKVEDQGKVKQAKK
- protocolSummary: BPGM phosphatase assay
- Type: biochemical
- reportedConditions: Table 4; read-out: hBPGM Phosphatase EC50

| compound | EC50 |
| --- | --- |
| Cc1cnc(OCc2nc(C)c(-c3cccc(-c4cc(F)c5nn[nH]c5c4F)n3)s2)nc1 [compound 8] | 40 nM |
| Cc1nc(COc2ncccn2)sc1-c1cccc(-c2ccc(-c3noc(=O)[nH]3)cc2)n1 [compound 15] | 170 nM |
| Cc1nc(COc2ccccn2)sc1-c1csc(-c2cc(F)c(O)c(F)c2F)n1 [compound 11] | 190 nM |
| Cc1nc(COc2cccnn2)sc1-c1csc(-c2cc(F)c3[nH]nnc3c2)n1 [compound 7] | 55 nM |
| Cc1nc(COc2ncccn2)sc1-c1cccc(-c2ccc3nn[nH]c3c2)n1 [compound 14] | 570 nM |
| COC(=O)NCc1nc(C)c(-c2csc(-c3ccc(C(=O)NS(=O)(=O)c4ccccc4)cc3)n2)s1 [compound 13] | 55 nM |
| Cc1nc(COc2ncccn2)sc1-c1csc(-c2cc(F)c(O)c(F)c2F)n1 [compound 10] | 310 nM |

---

- testedOn: human Bisphosphoglycerate mutase (hBPGM) (Homo sapiens)
- protocolSummary: BPGM phosphatase assay
- Type: biochemical
- reportedConditions: Table 6; read-out: huBPGM: phosphatase Enzyme EC50
- Procedure: […] A 3-PG enzyme mix solution (final enzyme concentration 62.5 nM, 3-PG concentration at 50 µM, 14.5 uL) was added to onto a 384-well clear plate. […] Absorbance measurements were recorded at 620 nm.
Listed molecules paired with reported EC50

| querySmiles | units | EC50 |
| --- | --- | --- |
| COc1cnc(OCc2nc(C)c(-c3cccc(-c4cc(F)c5nn[nH]c5c4)n3)s2)nc1 | nM | 40 |
| Cc1nc(COCC(=O)N(C)C)sc1-c1cccc(-c2cc(F)c3nn[nH]c3c2)n1 | nM | 260 |
| Cc1nc(COc2ncccn2)sc1-c1cccc(-c2ccc(O)c(C#N)c2)n1 | nM | 1800 |
| Cc1nc(COCC(=O)N(C)C)sc1-c1cccc(-c2cc(F)c(O)c(F)c2F)n1 | nM | 880 |
| CCc1cnc(OCc2nc(C)c(-c3cccc(-c4cc(F)c5nn[nH]c5c4F)n3)s2)nc1 | nM | 40 |
| Cc1nc(CNc2ncccn2)sc1-c1csc(-c2cc(F)c3[nH]nnc3c2)n1 | nM | 30 |
| Cc1nc(COc2ncccn2)sc1-c1csc(-c2cc(F)c(O)c(F)c2F)n1 | nM | 310 |
| Cc1nc(COc2ccccn2)sc1-c1csc(-c2cc(F)c(O)c(F)c2F)n1 | nM | 190 |

---

- testedOn: hBPGM (Homo sapiens, UniProt P07738)
- Sequence (P07738 whole entry): as above
- protocolSummary: BPGM synthase assay
- Format: biochemical
- reportedConditions: Table 6; read-out: huBPGM: synthase Enzyme IC50

| querySmiles | units | IC50 |
| --- | --- | --- |
| CC(=O)NCc1nc(C)c(-c2csc(-c3cc(F)c4[nH]nnc4c3)n2)s1 | nM | 930 |
| Cc1nc(CNC(=O)C2CCN(C)CC2)sc1-c1csc(-c2cc(F)c3[nH]nnc3c2)n1 | nM | 1900 |
| COC(=O)NCc1nc(C)c(-c2csc(-c3ccc(-c4nnn[nH]4)cc3)n2)s1 | nM | 340 |
| Cc1nc(CNC(=O)C(C)(C)C)sc1-c1ccnc(-c2cc(F)c3nn[nH]c3c2F)n1 | nM | 840 |
| COC(=O)NCc1nc(C)c(-c2csc(-c3ccc(C(=O)NS(=O)(=O)c4ccccc4)cc3)n2)s1 | nM | 170 |
| Cc1nc(CNc2ncccn2)sc1-c1cccc(-c2cc(F)c3nn[nH]c3c2)n1 | nM | 44 |
| Cc1nc(CNCC(=O)N(C)C)sc1-c1cccc(-c2cc(F)c3nn[nH]c3c2F)n1 | nM | 890 |
| COC(=O)NCc1nc(C)c(-c2csc(-c3ccc(C(=O)NS(C)(=O)=O)cc3)n2)s1 | nM | 3100 |
